- Test system: p-ERK of KRAS^G12D mutant AsPC-1 cells
- procedure-summary: AsPC-1 cell p-ERK inhibition test (HTRF), Experimental Example 1
- Assay type: cell-based
- assay-conditions: Homo sapiens, ASPC1, 3 hours compound incubation
Structures can show the parent of a compound that is named as a salt.
endpoint-label: IC50 (nM)
The answer is to be given in nM; state only the numeric part.

In plain terms, C=C1CN2CCC[C@@]2(COc2nc3c(c(N4CC5CCC(CO)(C4)N5)n2)CO[C@H](c2c(F)c(N)cc(C#CC)c2C(F)(F)F)C3)C1 (stereo partly shown) [Hydrochloride of Compound 1] has a documented IC50 of 164
